# System: barnyardgrass (Echinochloa crus-galli)
# assay: Test E pre-/postemergence plant response
# Type: in vivo
# settings: Postemergence, 8 g ai/ha, scale 0 to 100
propertyName: Plant response rating, Barnyardgrass
Please respond with just the number, no unit label.

Worked cases, Plant response rating, Barnyardgrass given:
| structureSmilesString | target | Plant response rating, Barnyardgrass |
| --- | --- | --- |
| Cc1cc(-c2ccc(Cl)cc2)nn1-c1c(OS(C)(=O)=O)cnn(C)c1=O | barnyardgrass (Echinochloa crus-galli) | 50 |
| Cc1cc(-c2ccc(Cl)cc2)nn1-c1c(OC(=O)C(C)C)cnn(C)c1=O | barnyardgrass (Echinochloa crus-galli) | 95 |
| CCc1cc(-c2ccc(Cl)cc2)nn1-c1c(OS(C)(=O)=O)cnn(C)c1=O | barnyardgrass (Echinochloa crus-galli) | 100 |

Provide one value: measured Plant response rating, Barnyardgrass of "Cn1ncc(O)c(-c2nn(-c3ccc(Cl)cc3)cc2Br)c1=O"
35

Provide one value: measured Plant response rating, Barnyardgrass of "CCc1cc(-c2ccc(Cl)cc2)nn1-c1c(OC(=O)C(C)(C)C)cnn(C)c1=O"
100
